Experiment: Volume of distribution at steady state in rat at 2.17 to 2.86 mg/kg, iv and 4.28 to 4.98 mg/kg, po
Type: ADME, organism-based
Details: in vivo, read-out: Vdss
endpoint.name: Vd (L/kg)

(1) CCn1cnc(-c2cc3nccc(Oc4ccc(NC(=O)C5(C(=O)Nc6ccccc6)CC5)cc4F)c3s2)c1
(2) CCn1cnc(C(=O)c2cc3nccc(Oc4ccc(NC(=O)CC(=O)Nc5ccccc5)cc4F)c3s2)c1
(3) CCn1cnc(-c2cc3nccc(Oc4ccc(NC(=O)CC(=O)N(C)c5ccccc5)cc4F)c3s2)c1
[Q] Would you mind ranking these compounds by ascending Vd? # answer = labels listed in requested order
[A] 3, 2, 1
(3: 0.33 L/kg, 2: 0.82 L/kg, 1: 2.2 L/kg)
